Target: T1, hRARα/mRXRα LBD heterodimer (human | mouse, UniProt P10276 153-421; P28700 228-467)
T1 construct: Heterodimer formed beforehand; small-molecule ligands (atRA, LG100754, AM580, BMS614, BMS649, 9-cisRA, HX531) differ between experiments and are named in the assays; also called RARα/RXRα LBD; RAR/RXR; not shown: His6, N-terminal, kept; copies: 1 + 1
T1 sequence (looked up) 1: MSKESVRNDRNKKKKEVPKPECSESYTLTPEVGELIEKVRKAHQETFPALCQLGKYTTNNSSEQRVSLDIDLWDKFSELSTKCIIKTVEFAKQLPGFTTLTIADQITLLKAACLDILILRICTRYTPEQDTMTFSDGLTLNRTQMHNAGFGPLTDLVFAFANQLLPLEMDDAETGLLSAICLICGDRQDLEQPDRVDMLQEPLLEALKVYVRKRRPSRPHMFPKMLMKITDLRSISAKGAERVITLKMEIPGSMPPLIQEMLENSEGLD
T1 sequence (looked up) 2: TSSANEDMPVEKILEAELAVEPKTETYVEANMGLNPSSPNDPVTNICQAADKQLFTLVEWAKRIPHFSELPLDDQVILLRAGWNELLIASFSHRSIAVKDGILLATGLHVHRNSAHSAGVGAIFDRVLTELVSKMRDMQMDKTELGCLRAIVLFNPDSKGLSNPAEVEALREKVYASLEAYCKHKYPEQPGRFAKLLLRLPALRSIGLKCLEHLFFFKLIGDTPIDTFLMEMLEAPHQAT
Experiment: fluorescence polarisation; fluorescence anisotropy; hRARα/mRXRα LBDs added to 1 µM TAMRA-SRC-1 NR2 peptide; 20°C; 10 mM TRIS-HCl pH 7.5, 150 mM NaCl, 10 mM DTT; apparent; RAR apo, RXR ligand BMS649
Settings: both partners purified
No end group written: not given here.
Readout: Kd
Number first, unit second.

If you can, please state the reported Kd value of RHKILHRLLQEGS (also: TAMRA label, position not given here, also called (TAMRA) – SRC-1 NR2 peptide; source: bought: Neosystem (Strasbourg, France)) [TAMRA-labeled SRC-1 NR2 peptide (686-RHKILHRLLQEGS-698)] . 0.42 µM
